- SUBJECT OF TEST: NLRP3 inflammasome (Homo sapiens)
- Construct: IL-1beta HTRF
- Sequence (Q96P20 whole entry): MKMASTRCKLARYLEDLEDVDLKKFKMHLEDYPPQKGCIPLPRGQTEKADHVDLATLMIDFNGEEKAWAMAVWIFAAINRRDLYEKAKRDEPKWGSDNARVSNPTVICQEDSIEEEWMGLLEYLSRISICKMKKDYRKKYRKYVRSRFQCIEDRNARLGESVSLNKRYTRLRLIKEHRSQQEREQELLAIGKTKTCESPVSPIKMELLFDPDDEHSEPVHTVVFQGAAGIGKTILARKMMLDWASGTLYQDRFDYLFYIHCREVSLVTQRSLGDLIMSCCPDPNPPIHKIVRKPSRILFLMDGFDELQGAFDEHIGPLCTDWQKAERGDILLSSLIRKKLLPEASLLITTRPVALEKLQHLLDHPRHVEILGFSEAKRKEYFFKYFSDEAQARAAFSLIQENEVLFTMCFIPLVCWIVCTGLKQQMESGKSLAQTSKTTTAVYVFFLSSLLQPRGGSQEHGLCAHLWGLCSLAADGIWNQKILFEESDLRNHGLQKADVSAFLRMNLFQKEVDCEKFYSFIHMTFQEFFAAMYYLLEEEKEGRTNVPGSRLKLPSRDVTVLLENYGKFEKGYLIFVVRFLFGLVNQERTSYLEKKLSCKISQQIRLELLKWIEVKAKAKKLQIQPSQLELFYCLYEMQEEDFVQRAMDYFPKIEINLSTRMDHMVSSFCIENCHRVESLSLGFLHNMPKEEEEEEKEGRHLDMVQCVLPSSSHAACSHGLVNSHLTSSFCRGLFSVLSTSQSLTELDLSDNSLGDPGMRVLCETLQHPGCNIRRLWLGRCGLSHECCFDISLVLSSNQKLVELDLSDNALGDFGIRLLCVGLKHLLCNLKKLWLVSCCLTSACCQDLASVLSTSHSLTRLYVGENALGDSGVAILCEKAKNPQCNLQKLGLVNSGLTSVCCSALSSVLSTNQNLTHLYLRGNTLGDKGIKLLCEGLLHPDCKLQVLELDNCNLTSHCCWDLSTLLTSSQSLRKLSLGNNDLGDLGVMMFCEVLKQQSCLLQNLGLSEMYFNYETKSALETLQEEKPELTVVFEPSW
- EXPERIMENT SUMMARY: IL-1β TR-FRET assay (THP-1 cells differentiated to macrophages with IFN-γ, LPS primed, ATP activated; HTRF)
- TEST CONTEXT: THP-1 macrophages, 50 ng/mL LPS priming, compound 30 min, 20 mM ATP 2 hours
VALUE TYPE: IC50 (nM)

a = CCc1cc(C)cc(O)c1-n1cc2sc(NC34CCC(O)(CC3)C4)nc2n1
b = COCCN1CCC[C@@H](Nc2nc3nn(-c4c(C)cc(C)cc4O)cc3s2)C1
Just curious, which one has the larger IC50 reading, a or b ? Identify your pick by its label.
a
(a: 120 nM, b: 34 nM)

P = Cc1cc(C)c(-n2cc3sc(N[C@@H]4C[C@H](F)CN(C)C4)nc3n2)c(O)c1
Q = Cc1cc(C)c(-n2cc3sc(NCC(O)C(F)F)nc3n2)c(O)c1 (centres unmarked)
Which one would you say has the larger IC50 value: P , or Q ? Use the label to indicate which entry you chose.
Q
(Q: 160 nM, P: 94 nM)

---

- SUBJECT OF TEST: NLRP3 inflammasome (Homo sapiens)
- Construct: IL-1beta HTRF
- EXPERIMENT SUMMARY: IL-1β TR-FRET assay (THP-1 cells differentiated to macrophages with IFN-γ, LPS primed, ATP activated; HTRF)
- TEST CONTEXT: THP-1 macrophages, 50 ng/mL LPS priming, compound 30 min, 20 mM ATP 2 hours
VALUE TYPE: IC50 (nM)

Some solved entries appear below for comparison.
{"MOLECULE": "Cc1cc(C)c(-n2cc3sc(N[C@H]4CN(C)CC4(F)F)nc3n2)c(O)c1 [Example 160]", "OBSERVED RESULT": 1300}
{"MOLECULE": "Cc1cc(C)c(-n2cc3sc(NCC4(F)CCC4)nc3n2)c(O)c1 [Example 138]", "OBSERVED RESULT": 600}
{"MOLECULE": "Cc1cc(C)c(-n2cc3sc(NC4CC5(CC(O)C5)C4)nc3n2)c(O)c1 (stereo not drawn) [Example 30]", "OBSERVED RESULT": 830}

1 = CCc1cc(C)c(-n2cc3sc(N[C@@H]4C[C@@H](F)CN(C)C4)nc3n2)c(O)c1 [Example 60]
2 = COC(=O)N1CC[C@@H](Nc2nc3nn(-c4c(C)cc(C)cc4O)cc3s2)C1 [Example 155]
3 = Cc1cc(C)c(-n2cc3sc(N[C@H]4C[C@@](C)(O)C4)nc3n2)c(O)c1 [Example 31]
4 = Cc1cc(F)cc(O)c1-n1cc2sc(N[C@@H]3CCCC[C@H]3O)nc2n1 [Example 6]
Arrange these molecules by their IC50, starting with the largest number. Answer format: the labels, ordered as requested.
4, 3, 2, 1
(4: 980 nM, 3: 650 nM, 2: 340 nM, 1: 61 nM)

---

- Tested on: NF-κB pathway
- EXPERIMENT SUMMARY: TNF-α assay (THP-1 cells differentiated to macrophages with IFN-γ, NF-κB pathway activated with LPS; ELISA)
- Type: cell-based, Human
- TEST CONTEXT: Homo sapiens, THP-1, THP-1 macrophages, compound 30 min, 50 ng/mL LPS 3 hours
VALUE TYPE: IC50

In the examples that follow, each entry is paired with its recorded IC50.
{"COMPOUND": "CN1CCC[C@@H](Nc2nc3nn(-c4ccc(Br)cc4O)cc3s2)C1 [Example 1]", "OBSERVED RESULT": "> 10 µM"}
{"COMPOUND": "Cc1cc(C)c(-n2cc3sc(NC4CCCN(C(=O)CC(F)F)C4)nc3n2)c(O)c1 (stereo not drawn) [Example 113]", "OBSERVED RESULT": "> 30 µM"}
{"COMPOUND": "Cc1cc(C)c(-n2cc3sc(N[C@H]4CNC[C@H](F)C4)nc3n2)c(O)c1 [Example 62]", "OBSERVED RESULT": "> 10 µM"}
{"COMPOUND": "Cc1cc(C)c(-n2cc3sc(N[C@H]4CN(C(=O)C5(O)CC5)C[C@@H]4F)nc3n2)c(O)c1 (racemic) [Example 124]", "OBSERVED RESULT": "> 30 µM"}
{"COMPOUND": "CN1C[C@H](F)C[C@@H](Nc2nc3nn(-c4c(O)cc(Cl)cc4C(F)F)cc3s2)C1 [Example 75]", "OBSERVED RESULT": "> 30 µM"}

Report measured IC50; entry is Cc1cc(C)c(-n2cc3sc(N(C)C)nc3n2)c(O)c1 [Example 49]
> 30 µM

Please look at this compound and report its IC50: Cc1cc(C)c(-n2cc3sc(NC(CO)CO)nc3n2)c(O)c1 [Example 168]
> 30 µM

Name the recorded IC50 of the compound listed here: Cc1cc(C)c(-n2cc3sc(NC4(CF)COC4)nc3n2)c(O)c1 [Example 170]
> 30 µM

Indicate its recorded IC50; the compound in question is CC(=O)N1CCC(Nc2nc3nn(-c4c(C)cc(C)cc4O)cc3s2)C1 (stereo not drawn) [Example 85]
> 30 µM

Return the recorded IC50 value; entry: Cc1cc(C)c(-n2cc3sc(NC4CCN(C)C4=O)nc3n2)c(O)c1 (stereo not drawn) [Example 103]
> 30 µM

Retrieve IC50 measured for Cc1cc(C)c(-n2cc3sc(N[C@H]4C[C@](C)(O)C4)nc3n2)c(O)c1 [Example 32] and print it.
> 10 µM

Please list IC50 recorded for the compound CCN1C[C@H](F)C[C@@H](Nc2nc3nn(-c4c(C)cc(C)cc4O)cc3s2)C1 [Example 7]
> 30 µM

Note IC50 for the compound shown: Cc1cc(C)c(-n2cc3sc(NC4CCN(C(=O)OCC(Cl)(Cl)Cl)C4)nc3n2)c(O)c1 (stereo not drawn) [Example 69]
> 10 µM

Name the recorded IC50 of the compound listed here: CC(=O)NCCNc1nc2nn(-c3c(C)cc(C)cc3O)cc2s1 [Example 38]
> 30 µM

Using the record for Cc1cc(C)c(-n2cc3sc(N[C@@H]4CCOC[C@H]4O)nc3n2)c(O)c1 [Example 167] , state its measured IC50.
> 30 µM

Report IC50 for Cc1cc(Cl)cc(O)c1-n1cc2sc(N[C@@H]3CCCN(C)C3)nc2n1 [Example 2]
> 30 µM

Return IC50 (reported value) for this compound: Cc1cc(O)c(-n2cc3sc(NCC(C)(C)O)nc3n2)c(C2CC2(F)F)c1 (stereo not drawn) [Example 148]
> 30 µM

Report IC50, nothing else, for this compound: Cc1cc(C)c(-n2cc3sc(NC4COCC4O)nc3n2)c(O)c1 (stereo not drawn) [Example 159]
> 30 µM
